Target: Homeobox protein Hox-A13 (Mus musculus) (UniProt Q62424)
Sequence (Q62424 whole entry, looked up): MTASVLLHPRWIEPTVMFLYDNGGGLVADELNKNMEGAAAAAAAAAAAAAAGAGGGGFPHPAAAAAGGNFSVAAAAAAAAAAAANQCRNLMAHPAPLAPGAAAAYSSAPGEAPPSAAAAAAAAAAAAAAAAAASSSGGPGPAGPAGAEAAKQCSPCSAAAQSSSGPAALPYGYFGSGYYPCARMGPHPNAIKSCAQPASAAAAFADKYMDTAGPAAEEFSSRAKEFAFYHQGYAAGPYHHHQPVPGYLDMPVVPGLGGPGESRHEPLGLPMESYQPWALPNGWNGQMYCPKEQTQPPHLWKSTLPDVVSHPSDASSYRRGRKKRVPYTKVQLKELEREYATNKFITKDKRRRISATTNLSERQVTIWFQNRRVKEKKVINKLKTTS
Test: inhibitors of HoxA13-DNA binding, primary screen, biochemical, fluorescence polarization, labeled oligonucleotide (AID 1185)
Conditions: 15 min, higher = more signal, called active from +8 up or from −8 down
Consider the following compounds; for each one, report its z-score.
Answers are plain numbers.

For every item in the list below, what is its measured z-score?
1. CC(C)CCC[C@@H](C)[C@H]1CC[C@@]2(C)C3=C(CC[C@]12C)[C@@]1(C)CC[C@H](OC(=O)CCl)C(C)(C)C1CC3 (stereo not given in full)
2. C=CCOC(=O)[C@H]1[C@@H]2C(=O)O[C@@H](c3ccccc3)[C@@H](c3ccccc3)N2[C@@H](c2ccc(OCCOC(=O)[C@H]3C[C@H]4C(=O)N5CCC[C@H]5C(=O)N4[C@H]3c3cccc(OCCO)c3)cc2)[C@]12C(=O)Nc1ccccc12
3. CC(C)(C)OC(=O)CC[C@@]12N=C(c3ccc(OCCCO)cc3)O[C@@H]1c1ccccc1N(Cc1ccccc1)C2=O

Response:
-0.128
1.42
-1.44

For every item in the list below, what is its measured z-score?
1. C=CCC1(CC=C)C[C@H]2CO[C@H](c3ccc(OC)cc3)N2C1=O
2. O=C1c2ccccc2[C@](Cc2ccccc2I)(C(=O)O)[C@H](c2ccc(CO)cc2)N1Cc1ccccc1Cl
3. C=C(COC)/C(=C/C[C@H](OC(C)=O)c1ccc(CO)o1)c1cnc2ccccc2c1
4. COCCCNC(=O)[C@@]1(Cc2ccccc2)N=C(c2ccc(OCCCO)cc2)O[C@H]1c1ccccc1N=[N+]=[N-]
5. O=C1O[C@H](c2ccccc2)[C@H](c2ccccc2)N2[C@H]1[C@@H](C(=O)Nc1nc3ccccc3s1)[C@]1(C(=O)Nc3ccc(C#CCCO)cc31)[C@H]2c1ccccc1OCCO
6. CCCC[C@@H](O)C1=C(C)C[C@H]2C(=O)N(C)C(=O)[C@H]2[C@H]1CO
7. CC(C)C(=C=CC[C@@H](O)c1ccc(CO)o1)CCO

Response:
-0.41
-4.18
-4.41
-3.11
2.73
-3.63
-3.45

====

Test: E. coli acrAB mutant growth effects, primary screen, E. coli filamentation inducers, strain DRC39, OD650, 24 h (AID 1178);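 further: growth measured as culture turbidity by optical density at 650 nm; test concentration not given here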
Conditions: higher = more signal, called active from +8 up or from −8 down
Consider the following compounds; for each one, report its z-score.
One number for each entry.

Example results:
smilesStr	testValue
COc1ccc([Si](C)(C)[C@H]2[C@H](CCO)O[C@@]3(C(=O)N(Cc4ccc(N5C(=O)c6cccc7cccc5c67)cc4)c4ccccc43)[C@@H]2C)cc1	2.3
CC(C)(C)OC(=O)CC[C@@]1(C(=O)N2CCOCC2)N=C(c2ccc(OCCCO)cc2)O[C@@H]1c1ccccc1	2.19
COCCOC(=O)N1C(=O)[C@@]2(c3cc(C#CCCO)ccc31)[C@H](c1ccccc1OCCO)N1[C@H](c3ccccc3)[C@H](c3ccccc3)OC(=O)[C@H]1[C@@H]2C(=O)NC[C@H](O)c1ccccc1	2.24
COC(=O)c1c(CC[C@@H](CO)NC(=O)Nc2ccc(OC)cc2)oc(C(=O)Cc2ccccc2)c1C(=O)OC	1.46
COCCCN1C(=O)[C@@]2(Cc3ccccc31)c1ccccc1C(=O)N(Cc1ccccc1Cl)[C@H]2c1ccc(CO)cc1	0.56

Would you kindly look at the next entry?
Prompt: Using the record for COc1ccc([Si](C)(C)[C@@H]2[C@@H](CC(=O)N3CCC[C@H]3CO)O[C@]3(C(=O)N(Cc4ccc(I)cc4)c4ccccc43)[C@H]2C)cc1 , report its z-score.
Response: 1.66

====

Consider the following molecules; for each one, report its composite z-score.
Target: Calmodulin-1 (Homo sapiens)
Assay: calcium-bound CALM1 binders on microarrays, profiling panel, artefact control for SMM control-protein annotation, biochemical, small-molecule microarray, Cy5-labelled CALM1, plus calcium (AID 1112);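 further: score merges spot fluorescence with signal to noise from triplicate slides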
Details: Cy5-CALM1 binding fluorescence, higher = more signal
Numbers only.

Example results:
molecule	readoutLabel	testValue
CC(C)C(CO)N1C(=O)[C@@H]2[C@H]3C(=O)OCC=C[C@H]3OC23C=CCN(Cc2ccccc2)C(=O)[C@@H]13 (some centres undefined)	composite z-score	-0.783
CC(C)NC(=O)[C@@H]1c2ccccc2C(=O)N(Cc2cc(F)cc(C(F)(F)F)c2)[C@H]1c1ccc(CO)cc1	composite z-score	0.916
C=CC[C@@]1(C(=O)NCc2ccccc2)N=C(c2ccc(OCCCO)cc2)O[C@@H]1c1ccccc1	composite z-score	0.369
CC(C)[C@@H](C(=O)O)n1cc(-c2ccccn2)nn1	composite z-score	0.556
CC(CO)N1C(=O)[C@@H]2C3C(=O)OCCC/C=C\[C@H]3OC23C=CCN(Cc2ccccc2)C(=O)[C@@H]13 (some centres undefined)	composite z-score	-0.292

For every item in the list below, what is its measured composite z-score?
1. COc1ccc(C(=O)Nc2cccc(CN3C(=O)[C@@]4(O[C@@H](CCO)[C@H]([Si](C)(C)c5ccc(OC)cc5)[C@H]4C)c4ccccc43)c2)cc1
2. CCOC(=O)C[C@H]1[C@H](OC(=O)c2cc3ccccc3oc2=O)[C@@H](NC(=O)c2ccccc2)c2cc(OCCCO)ccc2N1C(=O)Cc1ccc(OC)cc1
3. COc1ccc([Si](C)(C)[C@H]2[C@H](CC(=O)N(CCO)Cc3ccccc3)O[C@@]3(C(=O)N(Cc4ccc(N5CCC5=O)cc4)c4ccccc43)[C@@H]2C)cc1
4. C=C(COC)C(=O)CC[C@H](OC(=O)c1ccccc1-c1ccccc1C(=O)O)c1ccccc1OCCO

Response:
1: 1.03; 2: -0.422; 3: 0.705; 4: -0.749

For every item in the list below, what is its measured composite z-score?
1. CCN(CC)c1ccc(N2CC=CC34O[C@@H]5C=CCOC(=O)[C@@H]5[C@H]3C(=O)N(C(CO)C(C)C)[C@@H]4C2=O)cc1 (some centres undefined)
2. C=CC[C@]1(C(=O)N(C)C)N=C(c2ccc(OCCCO)cc2)O[C@H]1c1ccccc1CN=[N+]=[N-]
3. C=CCC1(CC=C)C[C@H]2CO[C@H](c3ccc(OC)cc3)N2C1=O
4. COC(=O)C(CC#Cc1ccc2c(c1)[C@]1(C(=O)N2)[C@H](C(=O)O)[C@H]2C(=O)O[C@H](c3ccccc3)[C@H](c3ccccc3)N2[C@@H]1c1ccc(OCCO)cc1)C(=O)OC
5. CC(C)(C)OC(=O)CC[C@@]1(C(=O)NCc2ccccc2)N=C(c2ccc(OCCCO)cc2)O[C@@H]1c1ccccc1CN=[N+]=[N-]

Response:
1. -0.752
2. 1.17
3. -2.31
4. 0.717
5. 0.605

For every item in the list below, what is its measured composite z-score?
1. CC(C)N1C(=O)c2ccccc2[C@@H](C(=O)NCc2ccccc2)[C@@H]1c1ccc(CO)cc1
2. COCCCNC(=O)[C@@]1(Cc2ccccc2)N=C(c2ccc(OCCCO)cc2)O[C@H]1c1ccccc1N=[N+]=[N-]
3. C=C(COC)C(=O)CC[C@@H](OC(=O)c1ccccc1-c1ccccc1C(=O)O)c1cccc(OCCO)c1
4. O=C(NO)[C@]1(Cc2ccccc2)N=C(c2ccc(OCCCO)cc2)O[C@@H]1c1ccccc1
5. COc1ccc([Si](C)(C)[C@@H]2[C@@H](CC(=O)N3CCC[C@H]3CO)O[C@]3(C(=O)N(Cc4ccc(N5CCC5=O)cc4)c4ccccc43)[C@H]2C)cc1
6. CC(C)C(CO)N1C(=O)[C@@H]2C3C(=O)OCCC/C=C\[C@H]3OC23C=CCN(C(C)C)C(=O)[C@@H]13 (some centres undefined)
7. C=CCN1C(=O)[C@@]2(O[C@@H](CCn3cc(CCO)nn3)[C@H]([Si](C)(C)c3ccc(OC)cc3)[C@H]2C)c2cc(N3C(=O)c4cccc5cccc3c45)ccc21
8. CO[C@H]1O[C@H](CO)[C@@H](OC(=O)Nc2ccccc2)[C@H](OC(=O)Nc2ccccc2-c2ccccc2)[C@H]1OC(=O)Nc1ccccc1-c1ccccc1

Response:
0.306
0.945
-1.09
0.309
0.343
-0.14
0.258
0.438

====

Test system: glycogen synthase kinase-3 (GSK3A per assay name; protocol says GSK3B)
Assay: GSK3 binders on small-molecule microarrays, primary screen, biochemical, small-molecule microarray, 635 nm fluorescence, GSK3A (AID 1103); further: the record names both GSK3A and GSK3B
Settings: small-molecule microarray binding, fluorescence 635 nm; higher = more signal
composite z-score vs 0.04: at or above is satisfied, below is not satisfied.

Use the examples below as a reference point.
molecule	labelValue
C=C(COC)/C(=C/C[C@H](OC(C)=O)c1cccc(OCCO)c1)c1cc(C(=O)OC)ccc1OC	satisfied
COCCOC(=O)N1C(=O)[C@@]2(c3cc(C#CC4(O)CCCCCC4)ccc31)[C@H](c1ccc(O)cc1)N1[C@H](c3ccccc3)[C@H](c3ccccc3)OC(=O)[C@H]1[C@@H]2C(N)=O	satisfied
COC(=O)C1=CC(c2ccc(CO)cc2)=CC(c2cccs2)N(C)C=C1C(=O)OC (stereo not drawn)	not satisfied
C=CC[C@]1(C(=O)N(C)C)N=C(c2ccc(OCCCO)cc2)O[C@H]1c1ccccc1CN=[N+]=[N-]	satisfied

Let us examine a further case.
Prompt: Is it the case that Cc1ccc(N2C(=O)c3ccccc3[C@](C)(C(=O)NC3CC3)[C@@H]2c2ccc(CO)cc2)nc1 has composite z-score reaching or exceeding 0.04?
Response: not satisfied
